mass density values by entry
- applied conditions: 343.15 K; 101.33 kPa; Liquid; Vibrating tube method
measured metric: mass density (kg/m3)

>>> endpoint_result("CCCCCCCCCCCCCCCCCC(=O)OC [methyl octadecanoate]")
828.1
>>> endpoint_result("CCCCCCCCCCCCCCCC(=O)OCC [ethyl hexadecanoate]")
823.2
>>> endpoint_result("CCCCC/C=C\\C/C=C\\CCCCCCCC(=O)OC [methyl (Z,Z)-9,12-octadecadienate]")
849.8
>>> endpoint_result("CCCCCCCC(=O)OC [methyl octanoate]")
833
>>> endpoint_result("CCCCCCCCCCCC(=O)OCC [ethyl dodecanoate]")
823.3
>>> endpoint_result("CCCCCCCCCCCCCC(=O)OC [methyl tetradecanoate]")
829.3
>>> endpoint_result("CCCCCCCC/C=C\\CCCCCCCC(=O)OC [methyl cis-9-octadecenoate]")
837.9
>>> endpoint_result("CCCCCCCCCCCCCCCC(=O)OC [methyl hexadecanoate]")
828.4
>>> endpoint_result("CCCCCCCCCC(=O)OCC [ethyl decanoate]")
823.4
>>> endpoint_result("CCCCCCCC/C=C\\CCCCCCCC(=O)OCC [ethyl (Z)-9-octadeceneoate]")
833.1
>>> endpoint_result("CCCCCCCCCCCC(=O)OC [methyl dodecanoate]")
830.2
>>> endpoint_result("CCCCCCCCCCCCCC(=O)OCC [ethyl tetradecanoate]")
823.1
>>> endpoint_result("CCCCCCCCCCCCCCCCCC(=O)OCC [ethyl octadecanoate]")
823.1
>>> endpoint_result("CCCCCCCCCC(=O)OC [methyl decanoate]")
831.2
